Would you mind telling me the reported IC50 of each entry?
- System: HCT-116
- assayProcedure: Cytotoxicity on human cancer cells (WST-1), HCT-116
- Type: cell-based
- settings: HCT-116 colon cancer cells, WST-1 on D4
Answer as a quantity: numeral, then unit.

Problem: Quick one: IC50 for COc1ccncc1/C=C(\C#N)c1c[nH]c2ccc(Br)cc12 ?
Result: 0.7 µM

Problem: What does the data say about its IC50? Entry: COc1ccc(C#N)cc1/C=C(\C#N)c1c[nH]c2ccc(Br)cc12
Result: 0.06 µM

====

- Tested on: A549
- assayProcedure: Cytotoxicity on human cancer cells (WST-1), A549
- Format: cell-based
- settings: A549 lung cancer cells, WST-1 on D4
observedProperty: IC50 (µM)
I only need the number, in µM, no unit after it.

Problem: Need IC50 of CN(C)c1ccc(C#N)cc1/C=C(\C#N)c1c[nH]c2ccc(Br)cc12 , thanks.
Result: 0.5

====

- assayedSystem: Human recombinant MKlp2 motor domain1-519, His tagged (Homo sapiens, UniProt O95235)
- Construct: Human recombinant MKlp2 motor domain1-519, His tagged; His; purchased Cytoskeleton MP05
- Sequence (O95235 1-519): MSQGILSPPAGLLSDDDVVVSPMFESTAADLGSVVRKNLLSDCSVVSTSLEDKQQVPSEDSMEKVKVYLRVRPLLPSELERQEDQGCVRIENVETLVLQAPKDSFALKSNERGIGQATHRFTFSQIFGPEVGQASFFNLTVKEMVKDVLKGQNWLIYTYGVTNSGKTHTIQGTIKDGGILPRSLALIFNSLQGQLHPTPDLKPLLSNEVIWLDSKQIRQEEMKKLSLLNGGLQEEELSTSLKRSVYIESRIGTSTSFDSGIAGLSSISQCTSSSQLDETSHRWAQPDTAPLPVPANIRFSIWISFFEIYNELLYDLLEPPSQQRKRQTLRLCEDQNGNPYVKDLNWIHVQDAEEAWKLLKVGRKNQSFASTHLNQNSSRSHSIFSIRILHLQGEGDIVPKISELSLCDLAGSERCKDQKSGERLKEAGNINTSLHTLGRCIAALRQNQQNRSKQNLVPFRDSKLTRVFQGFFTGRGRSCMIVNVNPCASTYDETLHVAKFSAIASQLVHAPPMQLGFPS
- assayProcedure: Microtubule stimulated ATPase activity of the MKlp2 motor domain (Kinesin ELIPA Assay Kit)
- Assay type: biochemical
- settings: Table 3, 22° C., read-out: MKIp2 IC50
Consider the following molecules; for each one, report its IC50.
Response body: numeric value in nM, unit text excluded.

Problem: Suppose we examine the molecule CN(C)c1ccc(C#N)cc1/C=C(\C#N)c1c[nH]c2ccc(Cl)cc12 [Example 41] ; what IC50 value has been reported?
Result: 400

Problem: I'd like to know its IC50. The molecule in question is COc1ccc(C#N)cc1/C=C(\C#N)c1c[nH]c2ccc(Br)cc12 [Example 38]
Result: 200

Problem: Looking for the measured IC50 of CSc1ccncc1/C=C(\C#N)c1c[nH]c2ccc(Br)cc12 [Example 15] , can you help?
Result: 200

Problem: Given the molecule COc1ccncc1/C=C(/C#N)c1c[nH]c2ccc(Br)cc12 [Example 5b] , what is its reported IC50?
Result: 610

Problem: Tell me the measured IC50 of COc1ccncc1/C=C(\C#N)c1cn(C(=O)OCCN2CCN(C)CC2)c2ccc(Br)cc12 [Example 62] , please.
Result: 350

====

- assayedSystem: Human recombinant MKlp2 motor domain1-519, His tagged (Homo sapiens, UniProt O95235)
- Construct: Human recombinant MKlp2 motor domain1-519, His tagged; His; purchased Cytoskeleton MP05
- assayProcedure: Microtubule stimulated ATPase activity of the MKlp2 motor domain (Kinesin ELIPA Assay Kit)
- Type: biochemical
- settings: Table 3, 22° C., read-out: MKIp2 IC50
pIC50: −log10 of the molar value. Structures can show the parent of a compound that is named as a salt.
Given measured pIC50, output rule met if it is greater than or equal to 7 and rule not met if not.

Problem: Does pIC50 meet or surpass 7 for COC(=O)CC(=O)n1cc(/C(C#N)=C/c2cnccc2OC)c2cc(Br)ccc21 ?
Result: rule not met

Problem: Hello, I need to know if N#C/C(=C\c1cnccc1-c1cccc(Br)c1)c1c[nH]c2ccc(Cl)cc12 has measured pIC50 not below 7. Thanks!
Result: rule not met

Problem: In plain terms: is recorded pIC50 at least 7 for CC(C)Oc1ccncc1/C=C(\C#N)c1c[nH]c2ccc(Br)cc12 ?
Result: rule not met

Problem: Determine whether measured pIC50 meets or exceeds 7 for COc1ccc(Sc2ccncc2/C=C(\C#N)c2c[nH]c3ccc(Br)cc23)cc1OC
Result: rule not met

Problem: Form field: pIC50 at least 7? Entry: COc1ccc(C#N)cc1/C=C(\C#N)c1c[nH]c2ccc(Cl)cc12
Result: rule not met

Problem: Determine whether measured pIC50 meets or exceeds 7 for CN(C)c1ccncc1/C=C(\C#N)c1c[nH]c2ccc(Cl)cc12 [Example 7, Hydrochloride]
Result: rule not met

Problem: Determine whether this molecule has pIC50 no lower than 7: N#C/C(=C\c1cnccc1Oc1ccccc1)c1c[nH]c2ccc(Br)cc12
Result: rule not met

Problem: Confirm if pIC50 reported for the molecule N#C/C(=C\c1cnccc1Sc1ccccn1)c1c[nH]c2ccc(Br)cc12 is 7 or above.
Result: rule not met

Problem: Given N#C/C(=C\c1cnccc1-n1cncn1)c1c[nH]c2ccc(Br)cc12 , state whether its pIC50 is at least 7.
Result: rule met

Problem: Is it the case that COc1ccncc1/C=C(\C#N)c1c[nH]c2ccc(Br)cc12 has pIC50 reaching or exceeding 7?
Result: rule met

Problem: Is the recorded value of pIC50 equal to or greater than 7 for this molecule? N#C/C(=C\c1cnccc1-c1ccoc1)c1c[nH]c2ccc(Cl)cc12
Result: rule met

Problem: Could you please find out whether N#C/C(=C/c1cnccc1-c1ccoc1)c1c[nH]c2ccc(Br)cc12 [Example 34b] has pIC50 that meets 7 or exceeds it?
Result: rule not met

Problem: Could you please find out whether CN(C)c1ccncc1/C=C(\C#N)c1c[nH]c2ccc(Cl)cc12 [Example 6] has pIC50 that meets 7 or exceeds it?
Result: rule not met

Problem: Tell me whether pIC50 is at least 7 here: CCOc1ccncc1/C=C(\C#N)c1c[nH]c2ccc(OC)cc12
Result: rule not met

Problem: Does the molecule N#C/C(=C\c1cnccc1Cl)c1c[nH]c2ccc(Br)cc12 have recorded pIC50 that is 7 or more?
Result: rule not met

Problem: Assess whether reported pIC50 for N#C/C(=C\c1cnccc1-c1cccc(Br)c1)c1c[nH]c2ccc(Br)cc12 sits at 7 or higher.
Result: rule not met

Problem: pIC50 >= 7 for COc1ccncc1/C=C(\C#N)c1c[nH]c2ccc(Cl)cc12 [Example 35, Hydrochloride] ?
Result: rule met

====

- assayedSystem: Human recombinant MKlp2 motor domain1-519, His tagged (Homo sapiens)
- Construct: Human recombinant MKlp2 motor domain1-519, His tagged; His; purchased Cytoskeleton MP05
- assayProcedure: Microtubule stimulated ATPase activity of the MKlp2 motor domain (Kinesin ELIPA Assay Kit)
- Format: biochemical
- settings: Table 3, 22° C., read-out: MKIp2 IC50
observedProperty: pIC50
Friendly reminder that pIC50 comes from taking -log10 of the concentration in mol/L.

Problem: Fill in the recorded pIC50 for this compound, with Human recombinant MKlp2 motor domain1-519, His tagged (Homo sapiens) as test system: COc1ccncc1/C=C(\C#N)c1c[nH]c2ccc(Cl)cc12 [Example 9]
Result: 7.00

Problem: GET /values?readout=pIC50&system=Human recombinant MKlp2 motor domain1-519, His tagged (Homo sapiens)&item= COc1ccncc1/C=C(\C#N)c1c[nH]c2cc(F)ccc12 [Example 46]
Result: 6.92

Problem: // map N#C/C(=C\c1cnccc1Oc1ccc(F)cc1)c1c[nH]c2ccc(Br)cc12 [Example 22] to recorded pIC50 (system: Human recombinant MKlp2 motor domain1-519, His tagged (Homo sapiens))
Result: 7.05

Problem: Reported pIC50 for Human recombinant MKlp2 motor domain1-519, His tagged (Homo sapiens), given N#C/C(=C\c1cnccc1-n1cncn1)c1c[nH]c2ccc(Cl)cc12 [Example 33] ?
Result: 7.00

Problem: Which measured pIC50 belongs to N#C/C(=C\c1cnccc1Sc1ccc(F)cc1)c1c[nH]c2ccc(Br)cc12 [Example 28] , tested on Human recombinant MKlp2 motor domain1-519, His tagged (Homo sapiens)?
Result: 7.05
